assayedTarget: Cbl (aa49-434) (Homo sapiens)
Construct: Cbl (aa49-434, in-house); made in house
testProtocol: Biotin-labelled Cbl biochemical assay (CBL/E2-Ub binding, HTRF)
conditionsUsed: 5.0 nM biotin labelled Cbl
pIC50: −log10 of the molar value.
quantityKind: pIC50

• C[C@H]1CCCN(Cc2cc(C(=O)Nc3cccc([C@]4(c5nncn5C)C[C@@H](CC#N)C4)c3)nc3c2CCC3(F)F)C1 = 7.32
• C[C@H]1CCCN(Cc2cc(C(=O)Nc3cccc([C@]4(c5nncn5C)C[C@@H](C)C4)c3)c3nccn3c2)C1 = 7.50
• C[C@@H]1CN(Cc2cc(C(=O)Nc3cccc([C@]4(c5nncn5C)C[C@@H](CC#N)C4)c3)c3nccn3c2)CCO1 = 6.04
• C[C@H]1CCCN(Cc2cc(C(=O)Nc3cccc([C@]4(Cc5nncn5C)C[C@@H](C#N)C4)c3)c3nccn3c2)C1 = 7.54
• C[C@H]1CCCN(Cc2cc(C(=O)Nc3cccc([C@]4(c5nncn5C)C[C@@H](C)C4)c3)nc3c2CCC3(F)F)C1 = 7.54
• C[C@H]1CCCN(Cc2cc(C(=O)Nc3cccc([C@]4(c5nncn5C)C[C@@H](CC#N)C4)c3)c3nccn3c2)C1 = 7.22
• C[C@H]1CCCN(Cc2cc(C(=O)Nc3cccc([C@]4(c5nncn5C)C[C@H](C)C4)c3)c3nccn3c2)C1 = 7.64

====

assayedTarget: Cbl-b (aa36-427) (Homo sapiens, UniProt Q13191)
Construct: Cbl-b (aa36-427, in-house); made in house
Sequence (Q13191 36-427): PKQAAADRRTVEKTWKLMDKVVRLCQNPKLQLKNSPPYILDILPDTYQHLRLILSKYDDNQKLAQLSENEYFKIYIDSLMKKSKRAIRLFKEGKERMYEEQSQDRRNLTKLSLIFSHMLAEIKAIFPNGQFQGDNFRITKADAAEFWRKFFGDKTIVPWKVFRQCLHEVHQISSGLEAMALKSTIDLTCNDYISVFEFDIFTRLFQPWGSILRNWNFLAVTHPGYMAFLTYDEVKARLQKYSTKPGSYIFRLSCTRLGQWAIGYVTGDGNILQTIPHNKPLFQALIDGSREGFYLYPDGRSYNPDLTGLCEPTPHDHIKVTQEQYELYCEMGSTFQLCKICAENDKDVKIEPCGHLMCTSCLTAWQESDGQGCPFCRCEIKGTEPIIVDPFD
testProtocol: Co-expressed Cbl-b with BirA biochemical assay (CBLB/E2-Ub binding, HTRF)
conditionsUsed: 0.6 nM Cbl-b co-expressed with BirA, HTRF; read-out: co-express CBLB/E2-Ub-binding assay IC50
Listing: IC50 of selected compounds
quantityKind: IC50 (nM)

- C[C@H](NCc1cc(C(=O)Nc2cccc([C@]3(c4nncn4C)C[C@@H](CC#N)C3)c2)nc2c1CCC2(C)C)C1CCC1: 1.1
- Cn1cnnc1[C@]1(c2cccc(NC(=O)c3cc(CNC4(C)CCC4)cn4c(Cl)cnc34)c2)C[C@H](C)C1: 1.1
- C[C@H](NCc1cc(C(=O)Nc2cccc([C@]3(c4nncn4C)C[C@@H](C)C3)c2)c2ncc(Cl)n2c1)C1CCC1: 0.8
- Cn1ccc2nc(C(=O)Nc3cccc([C@]4(c5nncn5C)C[C@@H](CC#N)C4)c3)cc(CNC3(C)CC3)c21: 1.3
- CC[C@H](C)NCc1cc(C(=O)Nc2cncc([C@]3(c4nncn4C)C[C@@H](C)C3)c2)nc2cc[nH]c12: 2.2
- Cn1cnnc1[C@]1(c2cncc(NC(=O)c3cc(CNC4(C)CCC4)cn4c(Cl)cnc34)c2)C[C@H](C)C1: 0.7
- Cn1cnnc1[C@]1(c2cccc(NC(=O)c3cc(CNC4(C)CC4)cn4c(F)cnc34)c2)C[C@H](CC#N)C1: 0.8

====

assayedTarget: Cbl-b (aa36-427) (Homo sapiens, UniProt Q13191)
Construct: Cbl-b (aa36-427, in-house); made in house
testProtocol: Co-expressed Cbl-b with BirA biochemical assay (CBLB/E2-Ub binding, HTRF)
conditionsUsed: 0.6 nM Cbl-b co-expressed with BirA, HTRF; read-out: co-express CBLB/E2-Ub-binding assay IC50
Text: The assay in the absence of a Cbl-b/Cbl inhibitor, where phosphorylation of Cbl-b/Cbl by the Src kinase allows UbcH5B-Ub to bind to Cbl-b/Cbl and brings the Bodipy-Fluorescein tagged ubiquitin in proximity to the streptavidin-terbium bound to the N-terminal biotinylated Avi-tagged Cbl-b/Cbl. […] The lack of a FRET signal indicates Cbl-b/Cbl is inhibited by the Cbl-b/Cbl inhibitor.
pIC50: −log10 of the molar value.
quantityKind: pIC50

- Cn1cnnc1[C@]1(c2cncc(NC(=O)c3cc(CNCC4CCC4)cn4c(F)cnc34)c2)C[C@H](C)C1: 9.22
- Cn1cnnc1[C@]1(c2cccc(NC(=O)c3cc(CNC4(C)CC4)cn4c(Cl)cnc34)c2)C[C@H](CC#N)C1: 9.70
- CC(C)CNCc1cc(C(=O)Nc2cccc([C@]3(c4nncn4C)C[C@@H](C)C3)c2)c2ncc(F)n2c1: 8.96
- Cn1cnnc1[C@]1(c2cccc(NC(=O)c3cc(CNC4(C)CC4)c4[nH]cc(F)c4n3)c2)C[C@H](CC#N)C1: 8.92
- Cn1cnnc1[C@]1(c2cncc(NC(=O)c3cc(CNC4(C)CC4)cn4c(F)cnc34)c2)C[C@H](C)C1: 8.92
- Cn1cnnc1[C@]1(c2cccc(NC(=O)c3cc(CNCC4CCC4)cn4c(F)cnc34)c2)C[C@H](C)C1: 9.10
- CC(C)CNCc1cc(C(=O)Nc2cccc([C@]3(c4nncn4C)C[C@@H](C)C3)c2)nc2cc[nH]c12: 9.15
- C[C@H]1CCCN(Cc2cc(C(=O)Nc3cccc([C@]4(c5nncn5C)C[C@@H](C)C4)c3)c3ncc(F)n3c2)C1: 8.14
- Cn1cnnc1[C@]1(c2cccc(NC(=O)c3cc(CNCC4CCC4)c4c(n3)C(F)(F)CC4)c2)C[C@H](C)C1: 9.30
- C[C@H](NCc1cc(C(=O)Nc2cccc([C@]3(c4nncn4C)C[C@@H](C)C3)c2)c2nccn2c1)C1CCC1: 8.96
- CC[C@H](C)NCc1cc(C(=O)Nc2cncc([C@]3(c4nncn4C)C[C@@H](C)C3)c2)c2nccn2c1: 8.52
- Cn1cnnc1[C@]1(c2cccc(NC(=O)c3cc(CNC4(C)CC4)cn4cc(F)nc34)c2)C[C@H](CC#N)C1: 9.30
- C[C@H](NCc1cc(C(=O)Nc2cccc([C@]3(c4nncn4C)C[C@@H](C)C3)c2)nc2c(F)c[nH]c12)C1CC1: 9.10
- Cn1cnnc1[C@]1(c2cccc(NC(=O)c3cc(CNCC4CCCC4)c4c(n3)C(C)(C)CO4)c2)C[C@H](C)C1: 7.94

====

Below is a list of entries, each paired with its recorded pIC50 value.
assayedTarget: Cbl-b (aa36-427) (Homo sapiens, UniProt Q13191)
Construct: Cbl-b (aa36-427, in-house); made in house
testProtocol: Co-expressed Cbl-b with BirA biochemical assay (CBLB/E2-Ub binding, HTRF)
conditionsUsed: 0.6 nM Cbl-b co-expressed with BirA, HTRF; read-out: co-express CBLB/E2-Ub-binding assay IC50
pIC50: −log10 of the molar value.
quantityKind: pIC50

* Cn1cnnc1[C@]1(c2cccc(NC(=O)c3cc(CNCC4(C)CCC4)cn4ccnc34)c2)C[C@H](CC#N)C1 [Compound A30] | 9.22
* CC(C)CNCc1cc(C(=O)Nc2cncc([C@]3(c4nncn4C)C[C@@H](C)C3)c2)nc2c1CCC2(F)F [Compound C53] | 8.43
* C[C@H](NCc1cc(C(=O)Nc2cncc([C@]3(c4nncn4C)C[C@@H](C)C3)c2)c2ncc(F)n2c1)C1CC1 [Compound A72] | 9.40
* C[C@H]1CCCN(Cc2cc(C(=O)Nc3cccc([C@]4(c5nncn5C)C[C@@H](CC#N)C4)c3)nc3cn[nH]c23)C1 [Compound B8] | 8.74
* Cc1cnc2c(C(=O)Nc3cccc([C@]4(c5nncn5C)C[C@@H](C)C4)c3)cc(CN[C@@H](C)C3CC3)cn12 [Compound A59] | 8.77
* Cn1cnnc1[C@]1(c2cccc(NC(=O)c3cc(CNC4(C)CCC4)cn4ccnc34)c2)C[C@H](CC#N)C1 [Compound A36] | 8.77
* Cc1c[nH]c2c(CN3CC[C@H](F)[C@H](C)C3)cc(C(=O)Nc3cccc([C@]4(c5nncn5C)C[C@@H](C)C4)c3)nc12 [Compound B34] | 8.80

====

assayedTarget: Cbl (aa49-434) (Homo sapiens, UniProt P22681)
Construct: Cbl (aa49-434, in-house); made in house
Sequence (P22681 49-434): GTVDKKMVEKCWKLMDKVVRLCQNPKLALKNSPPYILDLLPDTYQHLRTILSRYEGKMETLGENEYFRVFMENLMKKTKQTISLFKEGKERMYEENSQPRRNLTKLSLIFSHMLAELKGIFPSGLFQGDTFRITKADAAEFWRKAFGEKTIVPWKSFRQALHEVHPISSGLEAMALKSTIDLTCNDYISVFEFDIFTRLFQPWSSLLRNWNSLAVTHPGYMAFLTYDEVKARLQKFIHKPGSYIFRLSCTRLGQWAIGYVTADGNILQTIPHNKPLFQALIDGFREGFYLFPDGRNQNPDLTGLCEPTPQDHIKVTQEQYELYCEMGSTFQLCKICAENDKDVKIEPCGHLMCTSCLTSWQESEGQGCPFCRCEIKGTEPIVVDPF
testProtocol: Co-expressed Cbl with BirA biochemical assay (CBL/E2-Ub binding, HTRF)
conditionsUsed: 0.6 nM Cbl co-expressed with BirA, read-out: co-express CBL/E2-Ub-binding assay IC50
pIC50: −log10 of the molar value.
So basically: pIC50 at 8 or higher? That is t. Lower than 8? That is f.

* Cn1cnnc1C[C@]1(c2cccc(NC(=O)c3cc(CNCC4CCCC(F)(F)C4)c4c(n3)C(C)(C)CC4)c2)C[C@H](C#N)C1 (stereo partly shown) [Compound C15] | t
* C[C@H]1CCCN(Cc2cc(C(=O)Nc3cccc([C@]4(c5nncn5C)C[C@@H](C)C4)c3)nn3cccc23)C1 [Compound B13] | f
* C[C@H](NCc1cc(C(=O)Nc2cccc([C@]3(c4nncn4C)C[C@@H](C)C3)c2)nc2c1OCC2(C)C)C1CCCC1 [Compound C34] | t
* Cn1cnnc1CC1(c2cccc(NC(=O)c3cc(CNC4CCCCC4)cn4ccnc34)c2)COC1 [Compound A9] | f
